- MEASURED ON: BRD9 (Homo sapiens, UniProt Q9H8M2)
- Sequence (Q9H8M2 1-597): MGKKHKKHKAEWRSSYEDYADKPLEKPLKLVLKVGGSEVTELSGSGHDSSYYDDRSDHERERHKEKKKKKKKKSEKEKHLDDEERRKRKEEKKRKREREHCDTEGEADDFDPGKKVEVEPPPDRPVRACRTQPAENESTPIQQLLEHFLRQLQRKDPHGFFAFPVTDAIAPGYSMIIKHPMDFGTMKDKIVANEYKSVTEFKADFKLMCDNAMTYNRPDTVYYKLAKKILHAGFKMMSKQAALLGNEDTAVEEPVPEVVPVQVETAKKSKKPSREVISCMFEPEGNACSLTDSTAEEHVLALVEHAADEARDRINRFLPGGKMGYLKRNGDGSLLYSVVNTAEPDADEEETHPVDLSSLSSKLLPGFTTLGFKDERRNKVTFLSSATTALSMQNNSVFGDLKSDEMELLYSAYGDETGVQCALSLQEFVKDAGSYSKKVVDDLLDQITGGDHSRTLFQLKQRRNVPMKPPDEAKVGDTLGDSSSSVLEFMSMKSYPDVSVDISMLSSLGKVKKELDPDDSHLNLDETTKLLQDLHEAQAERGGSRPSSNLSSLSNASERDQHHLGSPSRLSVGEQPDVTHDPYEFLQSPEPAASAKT
- TEST SUMMARY: BRD9 degradation, HiBiT-BRD9 KI HEK293 (LgBiT) cells, NanoGlo Lytic Endpoint assay (Assay Protocol 1)
- Type: cell-based
- TEST CONTEXT: Table 4; BRD9 degradation, determined according to Assay Protocol 1; read-out: DC50^1
ENDPOINT LABEL: DC50

Before answering, review these 4 worked examples.
- COc1cc(-c2cn(C)c(=O)c(C)c2C)cc(OC)c1CN(C)C(=O)/C(C#N)=C/C(C)(C)C [BRD9ac]: 25 to 200 nM
- COc1cc(-c2cn(C)c(=O)c(C)c2C)cc(OC)c1CN1CCN(C(=O)/C(C#N)=C/c2cccc(Br)n2)CC1 [BRD9h]: < 25 nM
- COc1cc(-c2cn(C)c(=O)c(C)c2C)cc(OC)c1CN1CCN(C(=O)/C(C#N)=C/C(C)(C)C)C2(CC2)C1 [BRD9e]: > 200 nM
- COc1cc(-c2cn(C)c(=O)c(C)c2C)cc(OC)c1CN(C)C(=O)/C(C#N)=C/c1cccc(Br)n1 [BRD9ab]: < 25 nM

# input Given COc1cc(-c2cn(C)c(=O)c(C)c2C)cc(OC)c1CN1CC2CC(C1)N2C(=O)/C(C#N)=C/c1cccc(Br)n1 (mixture of isomers) [BRD9m] , state its recorded DC50.
# output < 25 nM

Recorded values, source patent US20260092061A1.
